B1: NOTCH4 peptide 1604-1619 (Neurogenic locus notch homolog protein 4), 16-mer library wild type / NSP9 (ORF1ab Nsp9, residues 4141-4253) (parent)
chain 1: TFQGAWLGAPEPWEPL
chain 2: NNELSPVALRQMSCAAGTTQTACTDDNALAYYNTTKGGRFVLALLSDLQDLKWARFPKSDGTGTIYTELEPPCRFVTDTPKGPKVKYLYFIKGLNNLNRGMVLGSLAATVRLQ

Variants of: B1
Conditions: with NSP9 (ORF1ab Nsp9, residues 4141-4253); bait immobilised on MaxiSorp plates (10 µg), library pre-cleared on GST, 2 h binding at 4 °C, five washes; one round per day, days 1-4; value from days 2 and 3; keep out of graded; scale: average fractional NGS count over selection days 2 and 3
measuredEndpoint: screen value
In your answer, state the number alone without any accompanying words.

# variantName, screen value
rows = [
    ("chain 1 P10I", 0),
    ("chain 1 G4P", 0),
    ("chain 1 G4L", 0),
    ("chain 1 P15Y", 0),
    ("chain 1 G4Y", 0),
]

Entry chain 1 P12V : reported screen value = ?
0.000373

Repeat for the following variant: chain 1 W13I
3.37e-05

Repeat for the following variant: chain 1 P10W
0.00035

Repeat for the following variant: chain 1 Q3V
0

Repeat for the following variant: chain 1 P10L
0

Repeat for the following variant: chain 1 G8M
0

Repeat for the following variant: chain 1 P12Q
3.5e-05

Repeat for the following variant: chain 1 G8R
0

Repeat for the following variant: chain 1 F2G
5.47e-05

Repeat for the following variant: chain 1 E14L
7.93e-05

Repeat for the following variant: chain 1 E11S
0

Repeat for the following variant: chain 1 W6N
0

Repeat for the following variant: chain 1 E14H
0

Repeat for the following variant: chain 1 P12Y
2.09e-05

Repeat for the following variant: chain 1 P12F
1.76e-05
